assayProcedure: AUC (0 to infinity) in Sprague-Dawley rat at 2 mg/kg, iv by LC-MS/MS analysis
Assay type: ADME, organism-based
Design: dose 2 mg/kg, route intravenous, time infinity
measurementSetup: in vivo
endpointLabel: AUC(0-inf) (ng·h/mL)
Your answer is read as ng·h/mL, so omit the unit and give the number.

Data request, read-out AUC(0-inf), for CC(=O)Nc1cccc(Nc2nc(Nc3ccc(N4CCN(C)CC4)cn3)ncc2Cl)c1
641

* * *

Test system: Jurkat
assayProcedure: Antiproliferative activity against human Jurkat cells assessed as inhibition of cell proliferation measured after 48 hrs by CCK8 assay
Format: functional, cell-based
Examples of molecules with documented GI50 follow.

{"mol": "CC(=O)c1c(C)c2cnc(Nc3ccc(N4CCNCC4)cn3)nc2n(C2CCCC2)c1=O", "recordedResult": "> 100 µM"}
{"mol": "CN1CCN(c2ccc(Nc3ncc(Cl)c(NCCc4ccc(F)cc4)n3)nc2)CC1", "recordedResult": "> 100 µM"}
{"mol": "Cc1ccccc1Nc1nc(NC2CCCCC2)ncc1Cl", "recordedResult": "> 100 µM"}
{"mol": "Cc1ccccc1Nc1nc(Nc2cccnc2)ncc1Cl", "recordedResult": "38.6 µM"}
{"mol": "Cc1ccccc1Nc1nc(Nc2ccccc2)ncc1Cl", "recordedResult": "> 100 µM"}

Next up:
So what's the measured GI50 for this one? Cc1ccc(Nc2nc(Nc3ccc(N4CCN(C)CC4)cn3)ncc2Cl)cc1
30.9 µM
